These measurements were taken from patent US8871753B2.

# Assayed Target: human JAK3 (a.a. 781-1124) (Homo sapiens)
# Construct: JAK3 (a.a. 781-1124); His tag (N); made in house; host or cells: insect cells (baculovirus)
# Sequence (P52333 781-1124): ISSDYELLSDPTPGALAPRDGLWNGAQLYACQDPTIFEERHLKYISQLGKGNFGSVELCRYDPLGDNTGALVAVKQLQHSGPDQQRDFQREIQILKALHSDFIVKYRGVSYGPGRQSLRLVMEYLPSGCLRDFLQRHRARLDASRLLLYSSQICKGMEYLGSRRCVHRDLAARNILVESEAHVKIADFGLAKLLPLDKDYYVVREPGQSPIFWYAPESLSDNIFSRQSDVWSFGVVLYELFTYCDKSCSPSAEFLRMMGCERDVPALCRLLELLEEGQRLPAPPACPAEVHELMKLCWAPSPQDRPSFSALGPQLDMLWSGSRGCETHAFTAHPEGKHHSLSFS
# Assay: In vitro JAK kinase assay (HTRF, phosphorylation of a biotinylated peptide), JAK3
# Type: biochemical
# Measurement Conditions: method AA1 (3 μM ATP) or AA2 (1000 μM ATP), not stated per value
Where a name gives a salt, the structure may show the parent alone.
Property: IC50 (µM)

# annotated cases, reported IC50 shown
CN(C)S(=O)(=O)N1CCC(CC(=O)Nc2ccc3cc2CCc2cccc(c2)Nc2ncc(Cl)c(n2)N3)CC1 [Example A81, trifluoroacetate]    0.024
CC(=O)N1CCC(CC(=O)Nc2ccc3cc2CCc2cncc(c2)Nc2ncc(Cl)c(n2)N3)C1 (stereo not drawn) [Example A94, bis(trifluoroacetate)]    0.086

[a] N#Cc1ccc(C(=O)N2CCC(C(=O)Nc3ccc4cc3CCc3cccc(c3)Nc3ncc(Cl)c(n3)N4)CC2)cc1 [Example A33, trifluoroacetate]
[b] CCNC(=O)N1CCC(C(=O)Nc2ccc3cc2CCc2cccc(c2)Nc2ncc(Cl)c(n2)N3)CC1 [Example A59, trifluoroacetate]
[c] O=C(Nc1ccc2cc1CCc1cccc(c1)Nc1ncc(Cl)c(n1)N2)C1CCCNC1 (stereo not drawn) [Example A44, bis(trifluoroacetate)]
Incoming: Hey, quick one: sort these by IC50, largest value first please. List each label, following the requested order.
Outgoing: a, c, b

---

# Assayed Target: human JAK1 (a.a. 837-1142) (Homo sapiens, UniProt P23458)
# Construct: human JAK1 (a.a. 837-1142); His tag (N); made in house; host or cells: insect cells (baculovirus)
# Sequence (P23458 849-1154): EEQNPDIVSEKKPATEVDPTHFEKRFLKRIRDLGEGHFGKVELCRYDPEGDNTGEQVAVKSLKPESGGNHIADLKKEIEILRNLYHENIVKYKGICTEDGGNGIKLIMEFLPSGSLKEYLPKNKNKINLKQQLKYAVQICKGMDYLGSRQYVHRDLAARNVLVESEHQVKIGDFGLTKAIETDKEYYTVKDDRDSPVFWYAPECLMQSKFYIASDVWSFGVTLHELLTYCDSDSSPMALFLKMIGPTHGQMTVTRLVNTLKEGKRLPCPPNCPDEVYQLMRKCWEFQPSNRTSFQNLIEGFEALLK
# Assay: In vitro JAK kinase assay (HTRF, phosphorylation of a biotinylated peptide), JAK1
# Format: biochemical
# Measurement Conditions: Table B1; read-out: JAK1 IC50
Structures can show the parent of a compound that is named as a salt.
Property: IC50 (nM)

# annotated cases, reported IC50 shown
O=S(=O)(Nc1ccc2cc1CCc1cccc(c1)Nc1ncc(Cl)c(n1)N2)c1cccs1 [Example B146, trifluoroacetate]    0.5
COc1ccc(CN2CCN(Cc3cc4cc(c3)Nc3nc(ncc3Cl)Nc3cccc(c3)CC4)CC2)cc1 [Example B197, tris(trifluoroacetate)]    18
O=S(=O)(Nc1cc2cc(c1)Nc1nc(ncc1Cl)Nc1cccc(c1)CC2)c1ccccc1 [Example B203, trifluoroacetate]    44

[1] COC(=O)c1ccc2cc1CCc1cccc(c1)Nc1ncc(Cl)c(n1)N2 [Example B22, trifluoroacetate]
[2] CN(Cc1ccc2cc1CCc1cncc(c1)Nc1ncc(Cl)c(n1)N2)C(=O)C1CCN(C(=O)Nc2ccccc2)CC1 [Example B337, bis(trifluoroacetate)]
[3] CN1CCOc2cc(S(=O)(=O)Nc3ccc4cc3CCc3cccc(c3)Nc3ncc(Cl)c(n3)N4)ccc21 [Example B165, trifluoroacetate]
[4] CN(C(=O)Nc1ccc2cc1CCc1cncc(c1)Nc1ncc(Cl)c(n1)N2)[C@H]1CCN(Cc2ccccc2)C1 [Example B284]
Incoming: Hey, quick one: sort these by IC50, largest value first please. List each label, following the requested order.
Outgoing: 1, 4, 2, 3
(1: 144 nM, 4: 72 nM, 2: 41 nM, 3: 13 nM)

---

# Assayed Target: human JAK2 (a.a. 828-1132) (Homo sapiens)
# Construct: JAK2 (a.a. 828-1132); His tag (N); made in house; host or cells: insect cells (baculovirus)
# Sequence (O60674 828-1132): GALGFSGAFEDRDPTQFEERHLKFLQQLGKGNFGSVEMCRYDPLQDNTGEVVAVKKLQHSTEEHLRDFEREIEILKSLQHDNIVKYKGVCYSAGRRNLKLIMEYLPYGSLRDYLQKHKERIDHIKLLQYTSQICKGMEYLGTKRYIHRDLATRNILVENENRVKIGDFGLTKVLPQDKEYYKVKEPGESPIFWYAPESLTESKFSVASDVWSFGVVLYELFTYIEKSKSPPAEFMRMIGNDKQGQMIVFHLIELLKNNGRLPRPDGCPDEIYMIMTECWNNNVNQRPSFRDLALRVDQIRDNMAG
# Assay: In vitro JAK kinase assay (HTRF, phosphorylation of a biotinylated peptide), JAK2
# Assay type: biochemical
# Measurement Conditions: Table D1
Where a name gives a salt, the structure may show the parent alone.
Property: IC50 (nM)

Clc1cnc2nc1Nc1cccc(c1)OCCc1cc(CN3CCOCC3)cc(c1)N2 [Example D189, bis(trifluoroacetate)]    0.5

[I] COC(=O)Cn1c(=O)oc2c3cc(cc21)Nc1nc(ncc1Cl)Nc1cccc(c1)CC3 [Example D183, trifluoroacetate]
[II] O=C(C[C@H]1CCN(c2nc3ccccc3s2)C1)Nc1ccc2cc1CCc1cncc(c1)Nc1ncc(Cl)c(n1)N2 [Example D136, tris(trifluoroacetate)]
[III] Clc1cnc2nc1Nc1cccc(c1)OCCc1cc(cc(-c3cnc(N4CCNCC4)nc3)c1)N2 [Example D31, tris(trifluoroacetate)]
Incoming: Ascending by IC50, please: list the compounds accordingly. List each label, following the requested order.
Outgoing: III, I, II

---

# Assayed Target: human JAK1 (a.a. 837-1142) (Homo sapiens, UniProt P23458)
# Construct: human JAK1 (a.a. 837-1142); His tag (N); made in house; host or cells: insect cells (baculovirus)
# Assay: In vitro JAK kinase assay (HTRF, phosphorylation of a biotinylated peptide), JAK1
# Type: biochemical
# Measurement Conditions: Table D1; read-out: JAK1 IC50
pIC50: −log10 of the molar value.
Property: pIC50

# annotated cases, reported pIC50 shown
O=C(Nc1ccccc1)N1CCN(c2ccc3cc2CCc2cccc(c2)Nc2ncc(Cl)c(n2)N3)CC1 [Example D92, bis(trifluoroacetate)]    7.80
Cc1n[nH]c(C)c1-c1cc2cc(c1)Nc1ncc(Cl)c(n1)Nc1cccc(c1)OCC2 [Example D30, bis(trifluoroacetate)]    8.39
O=C(COc1ccc2cc1CCc1cncc(c1)Nc1ncc(Cl)c(n1)N2)N1CCN(C(=O)c2ccc(F)cc2F)CC1 [Example D259, bis(trifluoroacetate)]    7.38
O=C(CC1CCN(c2ccncc2)C1)Nc1ccc2cc1CCc1cncc(c1)Nc1ncc(Cl)c(n1)N2 (stereo not drawn) [Example D157, tris(trifluoroacetate)]    7.41

[P] Cc1nc(S(=O)(=O)Nc2cc3cc(c2)OCCSc2cccc(c2)Nc2nc(ncc2Cl)N3)cn1C [Example D69, bis(trifluoroacetate)]
[Q] COc1cccnc1N1CCN(C(=O)COc2ccc3cc2CCc2cncc(c2)Nc2ncc(Cl)c(n2)N3)CC1 [Example D249, tris(trifluoroacetate)]
Incoming: Between P and Q , which one shows the larger pIC50 value? Which one? Tell me its label.
Outgoing: P
(P: 8.46, Q: 7.15)

---

Reported pIC50 values for a set of compounds
# Assayed Target: human JAK3 (a.a. 781-1124) (Homo sapiens)
# Construct: JAK3 (a.a. 781-1124); His tag (N); made in house; host or cells: insect cells (baculovirus)
# Assay: In vitro JAK kinase assay (HTRF, phosphorylation of a biotinylated peptide), JAK3
# Assay type: biochemical
# Measurement Conditions: method AA1 (3 μM ATP) or AA2 (1000 μM ATP), not stated per value
pIC50: −log10 of the molar value. Structures can show the parent of a compound that is named as a salt.

Incoming: Value lookup for pIC50; key = Cc1noc(C)c1NC(=O)N1CCC(CC(=O)Nc2ccc3cc2CCc2cncc(c2)Nc2ncc(Cl)c(n2)N3)CC1 [Example A145, bis(trifluoroacetate)]
Outgoing: < 7.00

Incoming: Again, but for O=C(CC1CCN(C(=O)c2ccccc2)CC1)Nc1ccc2cc1CCc1cncc(c1)Nc1ncc(Cl)c(n1)N2 [Example A192, bis(trifluoroacetate)]
Outgoing: < 6.70

Incoming: Again, but for N#Cc1c(F)cccc1N1CCC(CC(=O)Nc2ccc3cc2CCc2cncc(c2)Nc2ncc(Cl)c(n2)N3)CC1 [Example A234, tris(trifluoroacetate)]
Outgoing: < 6.40

Incoming: Again, but for Cc1nccc(N2CCC(CC(=O)Nc3ccc4cc3CCc3cncc(c3)Nc3ncc(Cl)c(n3)N4)CC2)n1 [Example A182, tris(trifluoroacetate)]
Outgoing: < 6.70

Incoming: Again, but for O=C(Nc1ccc2cc1CCc1cccc(c1)Nc1ncc(Cl)c(n1)N2)C1CCCN(C(=O)NC2CCCC2)C1 (stereo not drawn) [Example A62, trifluoroacetate]
Outgoing: 8.04

Incoming: Again, but for Cc1oncc1C(=O)N1CCC(CC(=O)Nc2ccc3cc2CCc2cncc(c2)Nc2ncc(Cl)c(n2)N3)CC1 [Example A131, bis(trifluoroacetate)]
Outgoing: 6.65

---

# Assayed Target: TYK2 (Homo sapiens, UniProt P29597)
# Sequence (P29597 whole entry): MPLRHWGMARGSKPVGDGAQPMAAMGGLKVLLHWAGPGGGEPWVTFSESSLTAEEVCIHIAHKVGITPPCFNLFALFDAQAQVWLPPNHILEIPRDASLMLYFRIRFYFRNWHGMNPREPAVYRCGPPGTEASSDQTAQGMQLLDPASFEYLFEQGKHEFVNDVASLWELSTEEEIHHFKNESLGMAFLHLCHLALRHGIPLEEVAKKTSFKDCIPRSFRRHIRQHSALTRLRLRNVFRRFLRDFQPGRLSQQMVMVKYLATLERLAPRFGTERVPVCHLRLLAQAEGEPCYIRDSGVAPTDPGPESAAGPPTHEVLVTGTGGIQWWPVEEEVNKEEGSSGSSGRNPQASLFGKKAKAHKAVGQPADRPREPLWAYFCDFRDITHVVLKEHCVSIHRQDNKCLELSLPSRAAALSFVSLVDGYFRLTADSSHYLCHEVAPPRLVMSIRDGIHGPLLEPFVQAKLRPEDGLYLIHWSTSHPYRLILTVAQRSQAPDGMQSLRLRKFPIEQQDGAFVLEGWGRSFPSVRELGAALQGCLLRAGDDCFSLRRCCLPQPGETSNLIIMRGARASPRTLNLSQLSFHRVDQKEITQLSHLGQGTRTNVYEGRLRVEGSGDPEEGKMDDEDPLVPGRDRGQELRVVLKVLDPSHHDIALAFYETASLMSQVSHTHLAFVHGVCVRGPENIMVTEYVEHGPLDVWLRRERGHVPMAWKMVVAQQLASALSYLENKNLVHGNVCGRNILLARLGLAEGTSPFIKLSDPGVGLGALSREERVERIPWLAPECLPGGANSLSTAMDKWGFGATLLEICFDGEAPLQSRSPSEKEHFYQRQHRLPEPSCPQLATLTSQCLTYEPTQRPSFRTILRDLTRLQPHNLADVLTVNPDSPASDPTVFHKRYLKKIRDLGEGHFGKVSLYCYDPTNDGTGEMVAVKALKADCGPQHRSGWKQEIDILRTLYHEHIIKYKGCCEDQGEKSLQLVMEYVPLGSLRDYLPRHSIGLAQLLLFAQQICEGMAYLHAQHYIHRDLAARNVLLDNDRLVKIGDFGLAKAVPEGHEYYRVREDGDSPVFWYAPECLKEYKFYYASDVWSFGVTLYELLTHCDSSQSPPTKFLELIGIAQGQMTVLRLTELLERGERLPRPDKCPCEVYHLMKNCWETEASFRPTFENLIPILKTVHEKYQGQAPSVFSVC
# Assay: TYK2 kinase inhibition (Table A1)
# Type: biochemical
# Measurement Conditions: Table D1
Structures can show the parent of a compound that is named as a salt.
Property: IC50 (nM)

CS(=O)(=O)N1CC(CC(=O)Nc2ccc3cc2CCc2cncc(c2)Nc2ncc(Cl)c(n2)N3)C1 [Example D146, bis(trifluoroacetate)]    270
CC(=O)N1CCC(CCNc2ccc3cc2CCc2cncc(c2)Nc2ncc(Cl)c(n2)N3)CC1 [Example D219, tris(trifluoroacetate)]    38

[a] O=C(OCc1ccccc1)N1CCC(CCNc2ccc3cc2CCc2cncc(c2)Nc2ncc(Cl)c(n2)N3)CC1
[b] O=C(C[C@@H]1CCCN(C(=O)c2ccccc2)C1)Nc1ccc2cc1CCc1cccc(c1)Nc1ncc(Cl)c(n1)N2 [Example D202, trifluoroacetate]
Incoming: // which entry reports the smaller IC50, a or b ? Which one? Tell me its label.
Outgoing: b
